assay: Half life in mouse liver microsomes; type: ADME, Microsome
measurement-name: half-life

{"molecule-smiles": "CN1CCC(CNC2=NC(=O)/C(=C/c3ccc(-c4cccc(Cl)c4)o3)S2)CC1", "measurement-name": "half-life", "observed": "> 2 h"}
{"molecule-smiles": "CN(c1cccc(-c2nc(/C=C3\\SC(NCC(C)(C)CO)=NC3=O)cs2)c1)S(C)(=O)=O", "measurement-name": "half-life", "observed": "0.0947 h"}
{"molecule-smiles": "CN1CCC(CNC2=NC(=O)/C(=C/c3csc(-c4ccc(C(F)(F)F)cc4)n3)S2)CC1", "measurement-name": "half-life", "observed": "> 2 h"}
{"molecule-smiles": "CC(C)(CO)CNC1=NC(=O)/C(=C/c2csc(-c3cccc(OC(F)(F)F)c3)n2)S1", "measurement-name": "half-life", "observed": "> 2 h"}
{"molecule-smiles": "O=C1N=C(N[C@H]2CC[C@H](O)CC2)S/C1=C\\c1csc(-c2ccc(OC(F)(F)F)cc2)n1", "measurement-name": "half-life", "observed": "13 h"}
{"molecule-smiles": "O=C1NC(=S)S/C1=C\\c1csc(-c2ccc(C(F)(F)F)cc2)n1", "measurement-name": "half-life", "observed": "0.817 h"}
{"molecule-smiles": "CN(C)S(=O)(=O)Nc1cccc(-c2nc(/C=C3\\SC(NCC(C)(C)CO)=NC3=O)cs2)c1", "measurement-name": "half-life", "observed": "0.126 h"}
{"molecule-smiles": "N=C1NC(=O)/C(=C/c2csc(-c3ccc(C(F)(F)F)cc3)n2)S1", "measurement-name": "half-life", "observed": "> 1.67 h"}
{"molecule-smiles": "O=C1N=C(NCC2(CO)CCC2)S/C1=C\\c1csc(-c2ccc(OC(F)(F)F)cc2)n1", "measurement-name": "half-life", "observed": "> 2 h"}
{"molecule-smiles": "CN(C)CCNC1=NC(=O)/C(=C/c2csc(-c3ccc(OC(F)(F)F)cc3)n2)S1", "measurement-name": "half-life", "observed": "> 2 h"}
{"molecule-smiles": "O=C1N=C(NCC2(CO)CC2)S/C1=C\\c1csc(-c2ccc(OC(F)(F)F)cc2)n1", "measurement-name": "half-life", "observed": "> 2 h"}
{"molecule-smiles": "CC(C)(CO)CNC1=NC(=O)/C(=C/c2csc(-c3ccc(OC(F)(F)F)cc3)n2)S1", "measurement-name": "half-life", "observed": "> 2 h"}
{"molecule-smiles": "CN1CCC(CNC2=NC(=O)/C(=C/c3csc(-c4cccc(N(C)S(C)(=O)=O)c4)n3)S2)CC1", "measurement-name": "half-life", "observed": "0.458 h"}
